Target: recombinant human DAO (diamine oxidase) (Homo sapiens)
Construct: purchased R&D systems
Sequence (P19801 20-751): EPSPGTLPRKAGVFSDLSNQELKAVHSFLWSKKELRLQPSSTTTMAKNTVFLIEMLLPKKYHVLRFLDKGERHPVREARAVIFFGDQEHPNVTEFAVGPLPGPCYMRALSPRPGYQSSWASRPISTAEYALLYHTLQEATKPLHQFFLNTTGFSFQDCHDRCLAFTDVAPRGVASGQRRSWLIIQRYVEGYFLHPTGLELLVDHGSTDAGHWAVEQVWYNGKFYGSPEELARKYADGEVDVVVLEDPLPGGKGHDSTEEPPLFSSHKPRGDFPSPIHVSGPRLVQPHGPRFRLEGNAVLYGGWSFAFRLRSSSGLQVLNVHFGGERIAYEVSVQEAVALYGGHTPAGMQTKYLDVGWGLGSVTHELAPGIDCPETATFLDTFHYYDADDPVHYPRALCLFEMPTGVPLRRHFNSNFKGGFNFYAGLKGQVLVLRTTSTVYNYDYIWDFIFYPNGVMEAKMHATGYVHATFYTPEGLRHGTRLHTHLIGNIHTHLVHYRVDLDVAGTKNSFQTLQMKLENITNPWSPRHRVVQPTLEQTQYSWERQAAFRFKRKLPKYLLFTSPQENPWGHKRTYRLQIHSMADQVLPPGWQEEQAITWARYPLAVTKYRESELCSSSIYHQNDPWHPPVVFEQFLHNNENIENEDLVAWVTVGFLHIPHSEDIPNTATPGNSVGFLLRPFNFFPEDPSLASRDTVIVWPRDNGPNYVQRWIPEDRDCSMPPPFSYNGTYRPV
Test: Activity evaluation on recombinant human DAO (Amplex Red/HRP-coupled assay, 1 mM putrescine substrate)
Format: biochemical
Settings: 1 mM putrescine, read-out: Inhibitory Activity (IC50, nM) DAO
Where a name gives a salt, the structure may show the parent alone.
measure: IC50

> print(dat)
                                   compound       result
1  CC(=O)N1CC=C(c2ccc(Cn3cnn(CC(CN)=C(F)F)c3=O)s2)CC1 [Example 125, Trifluoroacetate]  > 100000 nM
2  NCC(Cn1ncn(Cc2ccc(-c3cc(F)c4c(c3)CCC(=O)N4)s2)c1=O)=C(F)F [Example 136, Trifluoroacetate]  > 100000 nM
3  NCC(Cn1ncn(Cc2ccc(-c3ccn4ncnc4c3)s2)c1=O)=C(F)F [Example 128, Trifluoroacetate]     97000 nM
4  Cc1cc(-c2ccc(-n3cnn(CC(CN)=C(F)F)c3=O)cn2)cc2c1NC(=O)CC2 [Example 43, Trifluoroacetate]        22 nM
